src = patent US6872805B2

Parameter pIC50: see the listing below.
# STUDY TARGET: HCV NS3/4A protease complex (Hepatitis C virus genotype 1a, UniProt P27958, C1454S/C1711G)
# Sequence (P27958 1027-1711, stated change not applied): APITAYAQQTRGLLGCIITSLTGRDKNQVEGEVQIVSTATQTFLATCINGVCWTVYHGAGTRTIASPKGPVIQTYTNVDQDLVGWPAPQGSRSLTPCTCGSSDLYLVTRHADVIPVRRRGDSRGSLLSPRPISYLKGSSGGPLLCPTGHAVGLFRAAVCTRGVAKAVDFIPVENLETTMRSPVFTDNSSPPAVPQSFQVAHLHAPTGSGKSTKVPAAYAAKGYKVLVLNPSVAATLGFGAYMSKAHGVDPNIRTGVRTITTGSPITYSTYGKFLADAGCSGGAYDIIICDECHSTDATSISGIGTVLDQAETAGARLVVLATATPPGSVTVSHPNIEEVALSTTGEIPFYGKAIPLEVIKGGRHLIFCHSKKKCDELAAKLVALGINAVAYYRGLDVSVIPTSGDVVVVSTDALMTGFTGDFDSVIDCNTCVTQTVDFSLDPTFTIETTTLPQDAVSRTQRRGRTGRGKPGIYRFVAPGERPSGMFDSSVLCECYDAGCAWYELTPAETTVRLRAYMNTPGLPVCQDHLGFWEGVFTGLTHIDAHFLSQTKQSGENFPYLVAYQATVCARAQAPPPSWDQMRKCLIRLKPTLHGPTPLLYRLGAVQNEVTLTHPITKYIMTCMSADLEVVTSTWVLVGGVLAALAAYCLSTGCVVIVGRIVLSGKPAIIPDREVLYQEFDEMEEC
# Sequence (P27958 1027-1711, stated change not applied): as above
# EXPERIMENT: Recombinant HCV NS3/4A protease complex FRET peptide assay (strain not stated)
# Format: biochemical
# PARTICULARS: IC50, NS3/4A protease enzyme assay, strain not stated; activity ranges
pIC50: −log10 of the molar value.

COMPOUND | pIC50
C=CC1C[C@]1(NC(=O)[C@@H]1C[C@@H](Oc2cc(-c3ccccc3)nc3cc(OC)ccc23)CN1C(=O)[C@@H](NC(=O)OC(C)(C)C)C(C)(C)C)C(=O)NS(=O)(=O)C1CCCCC1 (stereo in doubt) | > 6.30
CCC1C[C@]1(NC(=O)[C@@H]1C[C@@H](Oc2cc(-c3ccccc3)nc3cc(OC)ccc23)CN1C(=O)[C@@H](NC(=O)CC1CC1)C(C)C)C(=O)NS(=O)(=O)C1CC1 (stereo in doubt) | > 7.30
C=CC1C[C@]1(NC(=O)C1CC(Oc2cc(-c3ccccc3)nc3cc(OC)ccc23)CN1C(=O)[C@@H](NC)C(C)(C)C)C(=O)NS(=O)(=O)C1CC1 (some centres unmarked) | > 7.30
COc1ccc2c(O[C@@H]3C[C@@H](C(=O)NC4(C(=O)NS(=O)(=O)C5CC5)CC4)N(C(=O)[C@@H](NC(=O)OC(C)(C)C)C(C)(C)C)C3)cc(-c3ccccc3)nc2c1 | > 7.30
C=C[C@@H]1C[C@]1(NC(=O)C1C[C@@H](Oc2cc(-c3ccccc3)nc3cc(OC)ccc23)CN1C(=O)[C@@H](NC(=O)CC(C)(C)C)C(C)(C)C)C(=O)NS(=O)(=O)C1CC1 (some centres unmarked) | > 7.30

###

# STUDY TARGET: NS3/4A BMS strain (Hepatitis C virus genotype 1a, UniProt P27958, C1454S/C1711G)
# Sequence (P27958 1027-1711, stated change not applied): as above
# Sequence (P27958 1027-1711, stated change not applied): as above
# EXPERIMENT: Recombinant HCV NS3/4A protease complex FRET peptide assay, BMS strain
# PARTICULARS: enzyme assay
pIC50: −log10 of the molar value.

MOLECULE | pIC50
C=CC1C[C@]1(NC(=O)[C@@H]1C[C@@H](Oc2cc(-c3ccccc3)nc3cc(OC)ccc23)CN1C(=O)C(NC(=O)OC(C)(C)C)C(C)(C)C)C(=O)NS(=O)(=O)c1ccc(NC(C)=O)cc1 (stereo partly shown) | 7.77

###

Listed next: entries and their corresponding EC50.
# Tested on: HCV replicon in Huh7 cells
# EXPERIMENT: HCV replicon cell-based assay
# Parameters: species or system HCV strain 1B
# PARTICULARS: Hepatitis C virus, Huh-7, 96 h; HCV replicon, Huh7 cells, 4 days; activity ranges; read-out: EC50
# Experimental: An HCV replicon whole cell system was established as described by Lohmann V, Korner F, Koch J, Herian U, Theilmann L, Bartenschlager R., Science 285(5424):110-3 (1999). […] Huh7 cells, constitutively expressing the HCV replicon, were grown in DMEM containing 10% FCS (Fetal calf serum) and 1 mg/ml G418 (Gibco-BRL). […] The toxicity of compound (CC50) was determined by adding 1/10th volume of alamar Blue to the media incubating the cells. […]
PROPERTY LABEL: EC50

COMPOUND | STUDY TARGET | MEASUREMENT
C=CC1C[C@]1(NC(=O)[C@@H]1C[C@@H](Oc2cc(-c3ccccc3)nc3cc(OC)ccc23)CN1C(=O)[C@@H](NC(=O)OC(C)(C)C)C(C)(C)C)C(=O)NS(=O)(=O)C1CCCC1 (stereo in doubt) [Compound 12] | HCV replicon in Huh7 cells | < 0.5 µM
C=CC1C[C@]1(NC(=O)C1CC(Oc2cc(-c3ccccc3)nc3cc(OC)ccc23)CN1C(=O)[C@@H](NC)C(C)(C)C)C(=O)NS(=O)(=O)C1CC1 (stereo partly drawn) [Compound 132] | HCV replicon in Huh7 cells | < 5 µM
C=CC1C[C@]1(NC(=O)[C@@H]1C[C@@H](Oc2cc(-c3ccccc3)nc3cc(OC)ccc23)CN1C(=O)[C@@H](NC(=O)OC(C)(C)C)C(C)CC)C(=O)NS(=O)(=O)C1CC1 (stereo partly drawn) [Compound 24] | HCV replicon in Huh7 cells | < 0.5 µM
